Origin of values: PubChem BioAssay (NCI)

- System: MOLT-4 leukemia
- METHOD SUMMARY: NCI-60 one-dose screen, 48 h
- CONDITIONS: 10 µM unless noted
The panel holds about 83,000 compounds, 20% with a hit somewhere; the sample as a whole holds those more often. Activity calls are given as the source filed them. How the source made its calls: active means growth percent below 10; inactive means the rest.
Outcomes you can answer with include only these: Y for active, N for inactive

[[record]]
compound = "O=S(=O)(CC(O)(c1ccccc1)c1ccccc1)CC(O)(c1ccccc1)c1ccccc1"
class_label = "N"

[[record]]
compound = "COc1cc(/C=C/C(=O)c2cccc(-n3cc(-c4cc(OC)c(OC)c(OC)c4)[nH]c3=O)c2)cc(OC)c1OC"
class_label = "Y"

[[record]]
compound = "CC1=C(C#N)C(=O)NC(C)C1 (stereo unspecified)"
class_label = "N"

[[record]]
compound = "O=[N+]([O-])c1ccc(C(c2ccccc2)c2ccccc2)cc1"
class_label = "N"


Give the logged outcome of this assay for the following compound: "Nc1nc(=O)c2ccccc2s1"
N

Any idea what this test logged for "COc1ccc(-c2cc(-c3ccccc3)nc(SCCCC(=O)NO)n2)cc1OC" ?
Y

Each compound tested received a call. Report the one for CCN(CC)CCC(CNc1ccnc2cc(Cl)ccc12)c1ccccc1 (stereo unspecified) .
N

Write down the call the test reported for this compound. Item: CN(CCCCCl)P(=O)(OCc1ccc([N+](=O)[O-])o1)C(F)(F)C[C@H](NC(=O)CNC(=O)c1ccc(N=[N+]=[N-])cc1)C(=O)NCCc1ccc(O)cc1 (stereo partly specified)
N

Called result for "C=CCSc1n[nH]c(-c2cccs2)n1"
N

Would you mind telling me which call this test gave CN(C)c1nc2c(N)ncnc2n1C1OC(CO)C(O)C1O (stereo unspecified) ?
N

Per the assay record, what outcome was assigned to "Cn1ncc2c(Sc3ccc(Cl)cc3)ncnc21" ?
N

Give the logged outcome of this assay for the following compound: "CC(=O)c1cc2c(N)c(C(=O)Nc3cccc4c3OCCO4)sc2nc1C"
N

How did this test come out for "Nc1nc(-c2ccccc2)c(CCCOc2ccc(NC(=O)CBr)cc2)c(=O)[nH]1" ?
N

What did the test return for "c1ccc(-c2nc(N3CCNCC3)c3nc(-c4ccccc4)oc3n2)cc1" ?
Y

What was the test verdict on "COc1cc(/C(C#N)=C/c2ccc3c(c2OC)OCO3)cc2c1OCO2" ?
N

Per the assay record, what outcome was assigned to "S=c1[nH]nc(-c2cc3ccc2CCc2ccc(cc2)CC3)n1-c1ccccc1" ?
N

====

- System: MDA-MB-435 melanoma
- METHOD SUMMARY: NCI-60 one-dose screen, 48 h (100 = growth as untreated, 0 = no growth, -100 = all killed)
- CONDITIONS: 10 µM unless noted
About 83,000 compounds went through this panel and 20% of them were active in at least one assay; those are over-represented in the sample as a whole.
Would you kindly list growth for each of these compounds?
Numbers only, in %.

[[record]]
compound = "CO[C@H]1NC(=O)N(S(=O)(=O)c2ccc(Cl)cc2)[C@@H]1OC"
quantity_kind = "growth"
recorded_result = 97.3


# return growth for each item in the list
1. O=[N+]([O-])c1ccc(-c2cn(-c3ccccc3)c(-c3ccccc3)n2)cc1
2. N[C@H]1CN(C(=O)c2cc3cc(Br)c(F)c(F)c3[nH]2)C[C@@H]1O
3. CC(C)(C)n1cc(-c2ccnc(NCCCNS(=O)(=O)c3ccc(F)cc3)c2)c(-c2cccc(O)c2)n1
4. CC(C)CSc1nc(NN)c(C#N)c(-c2ccccc2)n1
5. COc1ccc(-c2c(N)n[nH]c2-c2cc(OC)c(OC)c(OC)c2)cc1
6. Fc1ccc(-c2nc(-c3nc4ncccc4[nH]3)cc3c2[nH]c2ccccc23)cc1F
7. C/C(=N/NC(=S)Nc1ccccc1)c1nc2ccc(Cl)cc2[nH]1

1. 100
2. 99.2
3. 58.6
4. 101
5. -40.7
6. 66.1
7. -84.5

Parameter requested: growth. Apply to each item below.
1. Cn1c2ccc(Br)cc2c2c3c(c4c5ccccc5[nH]c4c21)C(=O)N(O)C3=O
2. COc1ccc(S(=O)(=O)n2cc(C(=O)C(=O)Nc3ccncc3)c3ccccc32)cc1F
3. COc1cc(C2C3=C(COC3=O)Nc3cc4c(cc32)OCO4)cc2c1OCO2 (stereo unspecified)

1: -59.3; 2: 58; 3: -20.4
